Cited source for all entries: paper PMC4336329

Target: human ether-à-go-go-related gene (hERG) potassium channel (human);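 further: peak tail current of the secondary pulse compared with the same well before compound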
Sequence (Q12809 whole entry, looked up): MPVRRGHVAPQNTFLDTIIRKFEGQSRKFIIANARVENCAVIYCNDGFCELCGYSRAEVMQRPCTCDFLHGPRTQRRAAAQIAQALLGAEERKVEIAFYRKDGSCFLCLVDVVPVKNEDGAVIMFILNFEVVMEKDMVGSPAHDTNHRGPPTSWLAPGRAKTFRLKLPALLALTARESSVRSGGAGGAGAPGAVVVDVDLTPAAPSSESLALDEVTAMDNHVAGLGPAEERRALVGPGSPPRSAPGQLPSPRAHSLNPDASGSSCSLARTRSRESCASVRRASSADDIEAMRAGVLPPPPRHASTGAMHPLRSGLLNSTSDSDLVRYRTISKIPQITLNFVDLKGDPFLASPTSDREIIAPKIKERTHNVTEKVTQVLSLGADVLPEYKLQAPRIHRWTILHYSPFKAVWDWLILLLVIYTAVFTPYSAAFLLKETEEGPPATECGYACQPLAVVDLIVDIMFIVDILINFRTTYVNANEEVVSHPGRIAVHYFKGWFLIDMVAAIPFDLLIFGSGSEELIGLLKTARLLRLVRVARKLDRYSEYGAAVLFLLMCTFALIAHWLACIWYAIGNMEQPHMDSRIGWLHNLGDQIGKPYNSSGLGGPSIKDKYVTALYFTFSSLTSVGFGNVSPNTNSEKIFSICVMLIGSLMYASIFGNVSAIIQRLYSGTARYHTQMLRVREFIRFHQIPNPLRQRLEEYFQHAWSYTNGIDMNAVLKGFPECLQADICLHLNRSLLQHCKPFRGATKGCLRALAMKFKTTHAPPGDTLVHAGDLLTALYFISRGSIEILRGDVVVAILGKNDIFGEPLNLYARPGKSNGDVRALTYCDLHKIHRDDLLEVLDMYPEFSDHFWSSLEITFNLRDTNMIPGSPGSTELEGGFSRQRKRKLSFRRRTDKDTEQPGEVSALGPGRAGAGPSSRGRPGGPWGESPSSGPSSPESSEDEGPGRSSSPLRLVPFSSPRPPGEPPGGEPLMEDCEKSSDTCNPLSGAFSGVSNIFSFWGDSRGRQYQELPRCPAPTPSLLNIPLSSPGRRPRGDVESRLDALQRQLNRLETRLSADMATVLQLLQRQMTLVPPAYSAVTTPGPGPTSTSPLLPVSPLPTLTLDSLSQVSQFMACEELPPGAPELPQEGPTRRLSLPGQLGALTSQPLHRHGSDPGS
Assay: primary screen, population patch clamp on CHO cells stably expressing hERG; higher = less effect of the substance
The campaign covered roughly 310,000 compounds. About 14,000 (4.5%) showed an effect of 50% or more. Effects have a minus sign here. This is one part of a sample in which strong results are shown more often than they occur.
Listed compounds paired with reported hERG current change (%, negative = inhibition) at 10uM
property-label: hERG current change (%, negative = inhibition) at 10uM (%)

- compound: "CC(C)N1CCN(Cc2ccncc2)CC1CCO (centres unmarked)"
  scale-unit: "%"
  measured-value: 4.5
- compound: "CC(C)C(=O)N(Nc1nc2ccccc2s1)C(=O)C(C)C"
  scale-unit: "%"
  measured-value: -0.224
- compound: "CC(=O)NC(NC(=S)Nc1ccc(N=Nc2ccccc2)cc1)C(Cl)(Cl)Cl (centres unmarked)"
  scale-unit: "%"
  measured-value: 19.6
- compound: "COc1ccccc1-c1nnc(SC(C(=O)c2c[nH]c3ccccc23)c2ccccc2)n1C (centres unmarked)"
  scale-unit: "%"
  measured-value: 20.8
- compound: "CN(C(=O)COC(=O)C1CCN(S(=O)(=O)c2cccs2)CC1)c1ccccc1"
  scale-unit: "%"
  measured-value: -14.1
- compound: "CC(C)N1CCN(Cc2ccc(OC3CCCC3)cc2)CC1CCO (centres unmarked)"
  scale-unit: "%"
  measured-value: -10.7
- compound: "CN(C)C=O.O=C(OCC(=O)N1CCCc2ccccc21)C1CCN(S(=O)(=O)c2cccs2)CC1"
  scale-unit: "%"
  measured-value: -71.1
- compound: "C/C(=N\\NC(=O)CN1CCN(S(=O)(=O)c2ccc(C)cc2)CC1)c1ccc(O)cc1"
  scale-unit: "%"
  measured-value: -6.97
- compound: "COc1ccc(S(=O)(=O)Nc2cccc(F)c2C)cc1C(=O)N1CCOCC1"
  scale-unit: "%"
  measured-value: 6.33
- compound: "C/C(=N/NC(=O)CN1CCN(S(=O)(=O)c2ccc(Br)cc2)CC1)c1ccncc1"
  scale-unit: "%"
  measured-value: -80.3
- compound: "CC(C)N1CCN(Cc2ccc(Oc3ncccn3)cc2)CC1CCO (centres unmarked)"
  scale-unit: "%"
  measured-value: 10.9
